biological target: UniProt:P30518
Sequence (P30518 whole entry): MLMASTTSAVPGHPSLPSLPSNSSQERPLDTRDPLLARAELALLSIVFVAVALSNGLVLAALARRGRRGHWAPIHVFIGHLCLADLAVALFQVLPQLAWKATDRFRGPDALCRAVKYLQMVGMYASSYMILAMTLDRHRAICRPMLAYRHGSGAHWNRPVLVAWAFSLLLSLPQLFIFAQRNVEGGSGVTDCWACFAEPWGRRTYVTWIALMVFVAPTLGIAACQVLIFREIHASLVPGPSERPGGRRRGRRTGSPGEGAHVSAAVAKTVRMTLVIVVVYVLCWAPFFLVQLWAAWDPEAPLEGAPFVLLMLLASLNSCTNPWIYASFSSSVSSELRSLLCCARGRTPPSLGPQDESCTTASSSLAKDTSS
Where a SMILES comes first, the peptide text is derived from it. Bridges are numbered along the chain shown (N, C = ends). [ ]: non-standard residue; d: D form. Orn = NCCC[C@H](N)C(=O)O; Mpa = O=C(O)CCS
reportedProperty: pKi
Note on units: pKi is unitless, being -log10 of a concentration expressed in mol/L.

GET /values?readout=pKi&item= CCOc1ccc(C[C@H]2NC(=O)CCSSC[C@@H](C(=O)N3CCC[C@H]3C(=O)N[C@@H](CCCN)C(=O)NCC(N)=O)NC(=O)[C@H](CC(N)=O)NC(=O)[C@H]([C@@H](C)O)NC(=O)[C@H]([C@@H](C)CC)NC2=O)cc1 [CAS_90779-69-4] ([Mpa][dY](Et)ITNCP[Orn]G-NH2; disulfide 1-6)
6.02
